measured-on: D(2) dopamine receptor (Homo sapiens, UniProt P14416)
Sequence (P14416 whole entry): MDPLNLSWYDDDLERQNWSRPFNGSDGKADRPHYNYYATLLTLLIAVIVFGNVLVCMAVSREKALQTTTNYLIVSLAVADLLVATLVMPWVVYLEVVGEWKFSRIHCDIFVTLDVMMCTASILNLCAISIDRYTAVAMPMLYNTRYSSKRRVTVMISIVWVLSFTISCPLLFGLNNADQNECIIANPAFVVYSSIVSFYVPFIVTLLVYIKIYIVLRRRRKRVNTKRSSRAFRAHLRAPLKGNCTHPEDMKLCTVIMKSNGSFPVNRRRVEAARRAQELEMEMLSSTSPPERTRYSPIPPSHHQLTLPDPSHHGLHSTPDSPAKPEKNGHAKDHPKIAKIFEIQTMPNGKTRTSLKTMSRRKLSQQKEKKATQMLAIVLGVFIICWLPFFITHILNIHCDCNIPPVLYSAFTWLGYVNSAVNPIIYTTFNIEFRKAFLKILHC
assay-setup: CHO
Description: Intrinsic activity at human D2L receptor expressed in FlpIn CHO cells assessed as inhibition of forskolin-stimulated cAMP production treated for 30 mins by AlphaScreen assay relative to control
assay-readout: log(activity)
Form rule: numeric answer, no unit written next to it.

Known results for molecules:
> print(dat)
                                   compound                               measured.on  readout.number
1  COc1ccccc1N1CCN(CCCCCNC(=O)c2sc3nc(C)cc(C)c3c2N)CC1  D(2) dopamine receptor (Homo sapiens, UniProt P14416)           -0.42
2  COc1nc2sc(C(=O)NCCCCCN3CCN(c4cccc(Cl)c4Cl)CC3)c(N)c2c(C)c1Cl  D(2) dopamine receptor (Homo sapiens, UniProt P14416)            0.28
3  CC(C)(C)OC(=O)NCCCCCN1CCN(c2cccc(Cl)c2Cl)CC1  D(2) dopamine receptor (Homo sapiens, UniProt P14416)            0.43
4  COc1ccccc1N1CCN(CCCCCNC(=O)c2sc3nc(OC)c(Cl)c(C)c3c2N)CC1  D(2) dopamine receptor (Homo sapiens, UniProt P14416)           -0.26
5  COc1ccccc1N1CCN(CCCCCNC(=O)OC(C)(C)C)CC1  D(2) dopamine receptor (Homo sapiens, UniProt P14416)            0.19

For the next question, use this molecule.
log(activity) recorded for this molecule, Cc1cc(C)c2c(N)c(C(=O)NCCCCCN3CCN(c4cccc(Cl)c4Cl)CC3)sc2n1 , is -0.06
